- SYSTEM_NAME: T1, human MSLN-FL-his protein (human, UniProt Q13421 296-580)
- T1 construct: Self-made in HEK293E cells; also called human MSLN full-length protein; hMSLN-FL-his; not shown: His tag
- ASSAY_REMARKS: ELISA on coated antigen, antibody 0.001 nM
MEASUREMENT_KIND: OD450 (OD450)
Your answer is read as OD450, so omit the unit and give the number.

Recorded OD450, per entry:
binder="S009-F3.80.22 (antibody, human IgG1, kappa, V domains shown, Human-murine chimeric antibody: murine VH/VL on human IgG1 heavy and kappa light constant regions) VH: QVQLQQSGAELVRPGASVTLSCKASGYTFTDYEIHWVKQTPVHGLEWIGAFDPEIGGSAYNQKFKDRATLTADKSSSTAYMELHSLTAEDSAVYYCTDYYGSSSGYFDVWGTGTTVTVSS VL: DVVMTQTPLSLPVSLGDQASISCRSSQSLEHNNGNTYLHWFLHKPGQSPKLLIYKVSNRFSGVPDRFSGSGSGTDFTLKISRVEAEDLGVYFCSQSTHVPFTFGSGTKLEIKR" measurement_kind=OD450 recorded_number=0.14
binder="S009-F3.74.20 (antibody, human IgG1, kappa, V domains shown, Human-murine chimeric antibody: murine VH/VL on human IgG1 heavy and kappa light constant regions) VH: RVQLQQSGAELVRPGASVTLSCKASGYTFTDSEMHWVKQTPVHGLEWIGAIDPEIDGTAYNQNFRDKAILTADKSSSTAYMELRSLTSEDSAVYYCTTYFGSGYGYFDVWGTGTTVTVSS VL: DVVMTQTPLSLSVSLGDQASISCRSSQSLVYSNGNTYLHWFLQKPGQSPKLLIYKVSNRFSGVPDRFSGSGSGTDFTLKINRVEAEDLGVYFCSQSTHIPFTFGAGTKLELKR" measurement_kind=OD450 recorded_number=0.11

Now take the following binder into account.
Return reported OD450; argument: S009-F3.7.3 (antibody, human IgG1, kappa, V domains shown, Human-murine chimeric antibody: murine VH/VL on human IgG1 heavy and kappa light constant regions) VH: EVNFEESGGGLVQPGGSMKLSCVASGFTFSNYWMNWVRQSPEKGLEWVAQIRLKSDNYATHYAESVKGRFTISRDDFKSSVYLQMNNLRAEDTGIYYCTVGTGGYWGQGTTLTVSS VL: DIVLTQSPASLAMSLGKRATISCRASESVSIVGTNVIHWFQQKPGQPPKLLIYHASNLETGVPARFSGSGSGTDFTLTIDPVEEDDVAIYHCLQSRKIPWTFGGGTKLEIKR
0.06

Measured values drawn from patent US20250250357A1 for this set.
